# assay_target: PDE7A (Homo sapiens, UniProt Q13946)
# Sequence (Q13946 whole entry): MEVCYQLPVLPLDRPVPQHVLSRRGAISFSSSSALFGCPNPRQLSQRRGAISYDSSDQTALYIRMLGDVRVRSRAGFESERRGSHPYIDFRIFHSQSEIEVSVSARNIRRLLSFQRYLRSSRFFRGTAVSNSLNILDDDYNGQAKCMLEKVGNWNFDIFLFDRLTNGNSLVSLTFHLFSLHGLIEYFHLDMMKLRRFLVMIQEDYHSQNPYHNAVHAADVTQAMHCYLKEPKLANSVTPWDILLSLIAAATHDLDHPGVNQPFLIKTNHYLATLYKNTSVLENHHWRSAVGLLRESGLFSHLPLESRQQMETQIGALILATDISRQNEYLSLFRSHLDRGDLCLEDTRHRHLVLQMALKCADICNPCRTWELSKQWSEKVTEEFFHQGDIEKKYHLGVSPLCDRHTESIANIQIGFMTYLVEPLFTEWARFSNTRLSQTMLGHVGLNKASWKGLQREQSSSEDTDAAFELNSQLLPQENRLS
# assay_details: 5FOA growth assay in fission yeast strain expressing PDE7A
# Format: cell-based
# Parameters: targets used in the assays are full-length proteins (as opposed to simply the catalytic domain); expressed in transfected cells; host or cells: Schizosaccharomyces pombe, PDE gene integrated in place of cgs2
# experimental_context: 20 uM; PDE 7A
Cut-off -0.8 ND ND ND ND on 1 Assay (20 uM) 7A, inclusive. At or above means rule met; below means rule not met.

C=Cn1c2ccccc2c2nc3ccccc3nc21 [2033, H06] :: rule met
C=CCn1c2ccc(Br)cc2c2nc3ccccc3nc21 [2017, C18] :: rule not met
CCc1ccc2c(c1)c1nc3ccccc3nc1n2CC [2015, P06] :: rule met
CCCCn1c2ccccc2c2nc3ccccc3nc21 [2013, I20] :: rule not met

Now consider a different compound.
[ask] Please check the record c1ccc(CCn2c3ccccc3c3nc4ccccc4nc32)cc1 [2019, G03] and state if its 1 Assay (20 uM) 7A is at or above -0.8 ND ND ND ND.
[reply] rule met
